Provenance of the data: BindingDB's records for patent US20230278983

biological target: Casein kinase II subunit alpha (Homo sapiens); assay: Radiometric Kinase Assay
Sequence (P68400 whole entry): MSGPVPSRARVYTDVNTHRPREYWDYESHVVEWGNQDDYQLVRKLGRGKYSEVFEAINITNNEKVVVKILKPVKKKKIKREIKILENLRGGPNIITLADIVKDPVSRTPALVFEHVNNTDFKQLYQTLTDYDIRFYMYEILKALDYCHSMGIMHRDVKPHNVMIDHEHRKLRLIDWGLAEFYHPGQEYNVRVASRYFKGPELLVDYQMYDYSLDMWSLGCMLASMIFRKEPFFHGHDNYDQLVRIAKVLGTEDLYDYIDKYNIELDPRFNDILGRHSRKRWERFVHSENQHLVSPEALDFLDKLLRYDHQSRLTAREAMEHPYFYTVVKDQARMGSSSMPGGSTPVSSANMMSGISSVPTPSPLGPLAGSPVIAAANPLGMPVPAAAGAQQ
measurement-kind: IC50 (nM)

CC(C)COC(=O)c1[nH]c2ccc(F)cc2c1-c1cn(CC2CCN(CCNS(=O)(=O)c3ccc(-c4ccccc4C#N)cc3)CC2)nn1 [US20230278983, Code AB1076]; 46
